biological target: T1, PILRA Fc (soluble human PILRA) (human, UniProt Q9UKJ1 20-197, limits assumed); assay: flow cytometry; blocking of PILRA Fc binding to human CD3+ T cells (Donor 1019)
T1 construct: also called soluble PILRA; not shown: Fc part, detected with anti-human IgG
T1 sequence (Q9UKJ1 20-197 limits assumed): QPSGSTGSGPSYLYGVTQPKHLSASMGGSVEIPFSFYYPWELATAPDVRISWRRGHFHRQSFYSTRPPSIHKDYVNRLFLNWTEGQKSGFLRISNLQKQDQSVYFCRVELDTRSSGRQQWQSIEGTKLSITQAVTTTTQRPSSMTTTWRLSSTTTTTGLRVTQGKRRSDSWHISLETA
The following binders are listed with their measured IC50 values.
Write the answer as a number in µg/mL, unit excluded.

Name the reported IC50 value associated with the binder D1 (antibody, V domains shown, second hybridoma campaign) VH: QVQLQQSGVELARPGASVKLSCKASGYNFTSYGINWVKQRTGQGLEWIGKSYPTSGNNYYNEKFKGKATVTADKSSSTAYMELRSLTSEDSAVYFCGVWYGSLFAHWGQGTLVTVTA VL: DIVMTQSQKFMSTSVGDRVRVTCKASQNVGFNVAWYQQKPGQSPKVLIYSASYRYSGVPDRFTGSGSGTDFTLTITNVQSEDLAEYFCHQYNNFPFTFGSGTKLEIK
1.6

Name the reported IC50 value associated with the binder D8 (antibody, V domains shown, second hybridoma campaign; same VH/VL as D6) VH: EVQLQQSGPELVKPGASVKMSCKASGYTFTDYYMDWVKQSHGESFEWIGRVNPYTGDSSYNQKFKGKATLTVDKSSNTAYLEFNSLTSEGSAVYYCARSDGYHYKYAMDYWGQGTSVTVSS VL: DVVMTQTPLSLPVSLGDQASISCRSSQSLVHSTGNTYLHWYLQKPGQSPNLLIYKISNRFSGVPDRFSGSGSGTDFTLKISRVEAEDLGVYFCSQSTHVPYTFGGGTKLEIK
2

Then this binder:
Name the reported IC50 value associated with the binder D3 (antibody, V domains shown, second hybridoma campaign) VH: QVQLQQPGADLVKPGASVKVSCKTSGYSFTSYWIHWVKQRPGQGLEWIGRVHPSDSDTDYSQKFKGKATLTVDDSSSTVYMQLTNLTSEDSAVYYCAIEWGYLFDYWGQGTTLSVSS VL: DIVLTQSPISLAVSLGQRATISCWASQSVSTSSYSYVHWYQQKPGQPPKLLIKYASNLDSGVPARFSGSGSGTDFTLNIHPVDEEDTATYYCHHNWEIPYTFGGGTKLEIK
2.9
